Data origin, for the record: patent US9650339B2

# Tested on: MCF7 cells
# method_description: Cell proliferation assay MCF7
# Type: cell-based
# condition_description: MCF7 human breast cancer cells; 120 hours; ATPlite 1 Step
property_name: EC50

compound	EC50
CN(C)C/C=C/CNCc1cc(C=O)ccn1	< 250 nM
CN(C)C1CCC(CNCc2cc(C=O)ccn2)C1 (stereo not shown)	250 to 2500 nM
CCN(CCN(C)C)C(=O)CN(Cc1cc(CNC(=O)C(F)(F)F)ccn1)C(=O)C(F)(F)F	< 250 nM

# map each compound to its EC50
1. CCN(CC)CCCCNCc1cc(/C=N/C(CO)c2ccccc2)ccn1 (stereo not shown)
2. CN(C)C/C=C/CNCc1cc(/C=N/C2CC2)ccn1
3. CCN(CC)CCCCNCc1cc(C=O)ccn1
4. COc1ccccc1CN1CCC(NC(=O)CNCc2cc(CN)ccn2)CC1
5. CCN(CC)CCCCN(Cc1cc(C=O)ccn1)C(=O)C(F)(F)F
6. CCN(CC)CCCCNCc1cc(/C=N/CCOC)ccn1

a:
["< 250 nM", "< 250 nM", "< 250 nM", "> 2500 nM", "< 250 nM", "< 250 nM"]

Fill in EC50 for each of the 4 compounds listed.
1. CCN(CC1CCCN1C)C(=O)CNCc1cc(/C=N/CCO)ccn1 (stereo not shown)
2. CCN(CC)CCCCNCc1cc(/C=N/CCO)ccn1
3. CON=Cc1ccnc(CNCCCN(C)C)c1
4. CN(C)C(=O)CNCc1cc(/C=N/CCC2CCCCC2)ccn1

a:
["< 250 nM", "< 250 nM", "> 2500 nM", "250 to 2500 nM"]

====

# target_desc: KDM4C (Homo sapiens, UniProt Q9H3R0)
# Construct: Full length
# method_description: Histone lysine demethylase immunofluorescence assay, U2OS cells transfected with KDM4C
# condition_description: U2OS cells transfected with pCMVHA KDM4C; mark detected H3K9me3; 20 hours
# Description: U2OS cells were seeded 24 hours before transfection. Transfection was performed with Fugene HD transfection reagent as recommended by the manufacturer. 6 hours after transfection, the cells were harvested and seeded into multi well plates into media containing compound. The media used was DMEM containing 10% FBS and pen/strep. […] The robot software analyzed individual cells and divided these into HA+ (transfected cells) and HA− (non-transfected cells). […]
pIC50: −log10 of the molar value.
Can you tell me pIC50 for the items I'm about to list?

molecule	pIC50
CON=Cc1ccnc(CNCCCN(C)C)c1	< 5.60
CCN(CC)CCCCNCc1cc(C=O)ccn1	5.60 to 6.60
CN(CCc1ccccc1)C(=O)CNCc1cc(/C=N/CCO)ccn1	< 5.60
CNCc1ccnc(CNCCCN(C)Cc2ccccc2)c1	< 5.60
CN(C)C(=O)CNCc1cc(/C=N/CCCc2ccccc2)ccn1	< 5.60
N#CCNCc1ccnc(CNCCCCN(Cc2ccccc2)C2CC2)c1	< 5.60

For every item below, please supply its pIC50.
1. CCN(CCN(C)C)C(=O)CNCc1cc(CN)ccn1
2. O=Cc1ccnc(CNCC(=O)N2CCC(Cc3ccccc3)CC2)c1
3. CN(C)CCCCCNCc1cc(C=O)ccn1
4. CCN1CCCC1CNC(=O)CNCc1cc(/C=N/C2CC2)ccn1 (stereo not shown)
5. O=Cc1ccnc(CNCCCCN(Cc2ccccc2)C2CC2)c1
6. CC1CCCCN1CCCNCc1cc(CNC2CC2)ccn1 (stereo not shown)

a:
5.60 to 6.60
< 5.60
< 5.60
< 5.60
< 5.60
< 5.60

// each listed molecule needs a value for pIC50
1. CC(C)C[C@H](NCc1cc(/C=N/CCO)ccn1)C(=O)N1CCCCC1
2. CN(C)C(=O)CNCc1cc(CNCC#N)ccn1
3. C(=N/C1CC1)/c1ccnc(CNCCCN2CCCC2)c1
4. CN1CCC(CNCc2cc(C=O)ccn2)CC1

a:
["< 5.60", "5.60 to 6.60", "5.60 to 6.60", "5.60 to 6.60"]

====

# target_desc: KDM4C (JMJD2C) (Homo sapiens)
# Sequence (Q9H3R0 1-349): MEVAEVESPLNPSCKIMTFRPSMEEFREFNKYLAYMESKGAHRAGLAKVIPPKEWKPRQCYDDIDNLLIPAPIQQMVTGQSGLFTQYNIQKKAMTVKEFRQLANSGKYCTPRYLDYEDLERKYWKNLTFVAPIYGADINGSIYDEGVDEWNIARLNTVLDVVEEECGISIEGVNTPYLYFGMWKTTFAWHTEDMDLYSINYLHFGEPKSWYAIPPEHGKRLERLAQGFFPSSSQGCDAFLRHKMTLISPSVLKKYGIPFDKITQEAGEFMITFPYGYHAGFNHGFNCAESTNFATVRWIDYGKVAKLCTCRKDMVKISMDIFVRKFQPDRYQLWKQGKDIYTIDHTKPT
# method_description: Histone lysine demethylase AlphaLISA assay, KDM4C
# Type: biochemical
# condition_description: read-out: KDM4C HDME Inhibition IC50
property_name: IC50

molecule	IC50
CCCNCc1cc(CNC2CC2)ccn1 [Compound 12]	> 2500 nM
CN(CCCn1cccn1)C(=O)CNCc1cc(/C=N/C2CC2)ccn1 [Compound 52]	250 to 2500 nM
CCN(CC)C(=O)CNCc1cc(/C=N/CCc2ccc(C)cc2)ccn1 [Compound 69]	250 to 2500 nM
c1ccc(CN2CCC[C@H]2CNCc2cc(CNCC3CC3)ccn2)cc1 [Compound 16]	> 2500 nM

// each molecule listed below needs its IC50
1. CN(C)CCNCc1cc(CNC(C#N)C2CC2)ccn1 (centres unmarked) [Compound 21]
2. C#CCN(C)C(=O)CNCc1cc(/C=N/C2CC2)ccn1 [Compound 56]
3. CCN(CC)CCCCNCc1cc(/C=N/C(CO)c2ccccc2)ccn1 (centres unmarked) [Compound 75]
4. O=Cc1ccnc(CNCCCN2CCCC2)c1 [Compound 111]
5. CN(C)C/C=C/CNCc1cc(C=O)ccn1 [Compound 98]
6. O=C(CNCc1cc(/C=N/C2CC2)ccn1)N1CCC[C@@H]1CN1CCCC1 [Compound 49]
7. CCN(CC)CCCCNCc1cc(/C=N/CCO)ccn1 [Compound 61]
8. CN(C)C(=O)CNCc1cc(CNCCF)ccn1 [Compound 14]

a:
["> 2500 nM", "> 2500 nM", "> 2500 nM", "> 2500 nM", "250 to 2500 nM", "250 to 2500 nM", "250 to 2500 nM", "250 to 2500 nM"]

Can you give me IC50 for all of these, one by one?
1. CCCCCCCC/N=C/c1ccnc(CNCC(=O)N(CC)CC)c1 [Compound 58]
2. CN1CCC(CNCc2cc(C=O)ccn2)CC1 [Compound 100]

a:
1: 250 to 2500 nM; 2: > 2500 nM

====

Task for the reader: assign each of the following compounds its reported IC50.
# target_desc: KDM5B (PLU-1) (Homo sapiens)
# Sequence (Q9UGL1 1-809): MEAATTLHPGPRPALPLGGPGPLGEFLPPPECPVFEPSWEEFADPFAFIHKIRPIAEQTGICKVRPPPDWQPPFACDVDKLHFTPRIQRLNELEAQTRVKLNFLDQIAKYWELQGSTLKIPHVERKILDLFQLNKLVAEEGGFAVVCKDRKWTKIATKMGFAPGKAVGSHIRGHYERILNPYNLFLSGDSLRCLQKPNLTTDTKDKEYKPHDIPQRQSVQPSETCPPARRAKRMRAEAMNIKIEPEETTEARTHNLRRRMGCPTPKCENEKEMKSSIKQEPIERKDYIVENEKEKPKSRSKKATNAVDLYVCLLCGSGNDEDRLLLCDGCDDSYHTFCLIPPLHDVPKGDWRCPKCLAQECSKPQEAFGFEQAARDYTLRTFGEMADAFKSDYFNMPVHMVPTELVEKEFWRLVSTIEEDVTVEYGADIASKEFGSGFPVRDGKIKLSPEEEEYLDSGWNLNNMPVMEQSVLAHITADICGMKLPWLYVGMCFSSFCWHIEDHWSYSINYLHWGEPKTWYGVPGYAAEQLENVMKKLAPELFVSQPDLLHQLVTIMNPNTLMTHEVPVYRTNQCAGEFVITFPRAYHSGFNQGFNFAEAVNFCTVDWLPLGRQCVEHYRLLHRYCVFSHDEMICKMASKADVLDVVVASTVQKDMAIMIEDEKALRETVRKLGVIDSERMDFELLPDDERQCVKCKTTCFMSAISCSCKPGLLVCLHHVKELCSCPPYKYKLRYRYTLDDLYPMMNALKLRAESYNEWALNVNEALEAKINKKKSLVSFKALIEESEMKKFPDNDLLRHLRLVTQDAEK
# method_description: Histone lysine demethylase AlphaLISA assay, KDM5B
# Format: biochemical
# condition_description: read-out: KDM5B HDME Inhibition IC50
# Procedure: Assays are performed analogously to the protocol described by PerkinElmer (Roy et al. PerkinElmer Technical Note: AlphaLISA #12, April 2011) Enzymes are dissolved in enzyme buffer and incubated for 10 min before being added to 3% DMSO solutions of compounds in enzyme buffer. Incubated for another 10 minutes, before substrate solution is added and the reaction mixture is incubated at room temperature. […] After incubation at room temperature in the dark the plates are read. […]

See these solved cases before continuing.
compound	IC50
CN(Cc1ccccc1F)C(=O)CNCc1cc(/C=N/CCO)ccn1	250 to 2500 nM
CCN(CC)CCCCNCc1cc(C=NNc2ccc(C#N)cc2)ccn1	250 to 2500 nM
CCN1CCCC1CNC(=O)CNCc1cc(C=O)ccn1 (stereo not shown)	< 250 nM
CCN(CC(C)N(C)C)C(=O)CNCc1cc(/C=N/CCO)ccn1 (stereo not shown)	< 250 nM

Look up IC50 for the entries below, preserving their order.
1. CN(C)C(=O)CNCc1cc(CNCC#N)ccn1
2. CCN(CC1CCCN1C)C(=O)CNCc1cc(C=O)ccn1 (stereo not shown)
3. CCN(CCN(C)C)C(=O)CN(Cc1cc(CNC(=O)C(F)(F)F)ccn1)C(=O)C(F)(F)F

a:
250 to 2500 nM
< 250 nM
> 2500 nM

====

# Test system: H3K4me3 mark
# method_description: Histone lysine demethylase immunofluorescence assay, non-transfected U2OS cells
# Format: cell-based
# condition_description: Homo sapiens, staining of the H3K4me3 mark, 20 hours incubation with compound
I'd be grateful if you could share measured IC50 for these entries.

compound	property_name	data_value
CCN(CC)CCCCNCc1cc(CNC(=O)C(=O)O)ccn1	IC50	< 250 nM
CN(C)CCCNCc1cc(CN)ccn1	IC50	< 250 nM
CN(C)C(=O)CNCc1cc(CNCC#N)ccn1	IC50	250 to 2500 nM
CCN(CC)CCN(CC)C(=O)CNCc1cc(C=O)ccn1	IC50	< 250 nM
CCN(CC(C)(C)N(C)C)C(=O)CNCc1cc(C=O)ccn1	IC50	< 250 nM

Provide IC50 for all items below, preserving their order.
1. CCCCCCCC/N=C/c1ccnc(CNCC(=O)N(CC)CC)c1
2. CCN(CC)CCCCNCc1cc(CNC(=O)C(F)(F)F)ccn1
3. CCN(CC)CCCCNCc1cc(/C=N/CC2(CO)CC2)ccn1

a:
1: > 2500 nM; 2: < 250 nM; 3: < 250 nM
